Below, each of the compounds is paired with its reported Enzyme TDO IC50 ratio compared to Ref. Cmpd 1 value.
target: recombinant TDO2 (Homo sapiens); experiment: TDO2 enzymatic assay (UV absorption, N-formylkynurenine formation); assay type: biochemical; conditions: IC50 of compound divided by IC50 of Ref. Cmpd 1
Sequence (P48775 whole entry, species assumed): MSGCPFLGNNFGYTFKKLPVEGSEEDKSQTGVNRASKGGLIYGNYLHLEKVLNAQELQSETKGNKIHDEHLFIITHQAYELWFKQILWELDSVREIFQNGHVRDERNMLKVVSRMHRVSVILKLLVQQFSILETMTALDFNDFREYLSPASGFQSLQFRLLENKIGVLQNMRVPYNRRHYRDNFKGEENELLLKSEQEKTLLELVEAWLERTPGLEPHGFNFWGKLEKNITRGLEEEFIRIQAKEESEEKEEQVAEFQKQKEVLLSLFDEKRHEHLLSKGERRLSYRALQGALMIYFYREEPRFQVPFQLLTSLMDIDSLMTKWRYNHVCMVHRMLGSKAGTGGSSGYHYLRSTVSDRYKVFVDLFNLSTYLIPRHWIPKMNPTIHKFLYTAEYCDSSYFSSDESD
observed property: Enzyme TDO IC50 ratio compared to Ref. Cmpd 1

# compound, test result
records = [
    ("FC(CC1Cc2ccccc2-c2cncn21)C1CCCCC1 (centres unmarked) [Cmpd 312]", 0.23),
    ("OC(CC1C(O)c2ccccc2-c2cncn21)C1CCCCC1 (centres unmarked) [Cmpd 308]", 62.28),
    ("FC(CC1Cc2ccccc2-c2cncn21)C1CCCCC1 (centres unmarked) [Cmpd 301]", 0.12),
    ("OC(CC1(C(F)(F)F)c2ccccc2-c2cncn21)C1CCCCC1 (single isomer, unassigned) [Cmpd 290]", 18.75),
    ("OC(CCc1c(F)cccc1-c1c[nH]cn1)C1CCCCC1 (centres unmarked)", 19.33),
]
